System: HepG2
Test: Up regulation of TRIB1 gene expression in human HepG2 cells measured after 6 hrs by qRT-PCR analysis relative to control
Format: functional
measured_metric: max activation

Problem: Need max activation of `CC(C)COC(=O)NC[C@@H]1CC[C@H]2[C@H](COc3ccc(NC(=O)c4ccc(C(F)(F)F)cc4)cc3C(=O)N2C)O1` , thanks.
Result: 5.8

Problem: Item under review: `CN1C(=O)c2cc(NC(=O)c3ccc(C(F)(F)F)cc3)ccc2OC[C@@H]2O[C@H](CC(=O)NC3Cc4ccccc4C3)CC[C@@H]21` . Reported max activation?
Result: 4.7

Problem: Which max activation value belongs to `CN1C(=O)c2cc(NC(=O)c3ccc(C(F)(F)F)cc3)ccc2OC[C@@H]2O[C@H](CNC(=O)CC(C)(C)C)CC[C@@H]21` ?
Result: 6.6

Problem: Look up max activation for this molecule: `CN1C(=O)c2cc(NC(=O)c3ccc(C(F)(F)F)cc3)ccc2OC[C@@H]2O[C@H](CNc3nnc(C4CCC4)o3)CC[C@@H]21`
Result: 4.6

Problem: Requested field: max activation. Item: `CN1C(=O)c2cc(NC(=O)c3ccc(C(F)(F)F)cc3)ccc2OC[C@@H]2O[C@H](CNC(=O)[C@@H]3CCCO3)CC[C@@H]21`
Result: 3.7
